This listing pairs substances with measured Hemagglutination [MAC], minimum agglutinating concentration.
- System: Salmonella minnesota ReLPS sensitized sheep erythrocytes
- assayName: LPS hemagglutination assay (MAC)
- Format: binding
measureName: Hemagglutination [MAC], minimum agglutinating concentration

- 54-2: synthetic rabbit RNIP fragment, amino acids 139-171 of SEQ ID NO:4 (RLRKFRNKIKEKLKKIGQKIQGLLPKLAPRTDY) [Peptide 54-2]: > 125 µg/mL
- 52-1: synthetic rabbit RNIP fragment, amino acids 143-169 of SEQ ID NO:4 (FRNKIKEKLKKIGQKIQGLLPKLAPRT) [Peptide 52-1]: > 125 µg/mL
- 21-1: synthetic rabbit RNIP fragment, amino acids 135-151 of SEQ ID NO:4 (GLRKRLRKFRNKIKEKL) [Peptide 21-1]: > 125 µg/mL

====

- Test system: Salmonella minnesota ReLPS sensitized sheep erythrocytes
- assayName: LPS hemagglutination assay (MAC)
- Format: binding
measureName: Hemagglutination [MAC], minimum agglutinating concentration

- 50-1: synthetic rabbit RNIP fragment, amino acids 147-171 of SEQ ID NO:4 (IKEKLKKIGQKIQGLLPKLAPRTDY) [Peptide 50-1]: > 125 µg/mL
- 32-1: synthetic rabbit RNIP fragment, amino acids 135-143 of SEQ ID NO:4 (GLRKRLRKF) [Peptide 32-1]: > 125 µg/mL
- 52-3: synthetic rabbit RNIP fragment, printed as amino acids 132-171 of SEQ ID NO:4 (EPTGLRKRLRKFRNKIKEKLKKIGQKIQGLLPKLAPRTDY) [Peptide 52-3]: > 125 µg/mL
- 34-1: synthetic rabbit RNIP fragment, amino acids 140-166 of SEQ ID NO:4 (LRKFRNKIKEKLKKIGQKIQGLLPKLA) [Peptide 34-1]: > 125 µg/mL
- RNIP: rabbit reactive nitrogen inhibitory protein, amino acids 135-171 of SEQ ID NO:4; purified from granulocytes (Tables 1-3) or synthetic (#197) (GLRKRLRKFRNKIKEKLKKIGQKIQGLLPKLAPRTDY): 7.9 µg/mL

====

- System: Salmonella minnesota ReLPS sensitized sheep erythrocytes
- assayName: LPS hemagglutination assay (MAC)
- Format: binding
This listing pairs substances with measured Hemagglutination [MAC], minimum agglutinating concentration.
measureName: Hemagglutination [MAC], minimum agglutinating concentration

* 50-2: synthetic rabbit RNIP fragment, amino acids 147-171 of SEQ ID NO:4 (IKEKLKKIGQKIQGLLPKLAPRTDY) [Peptide 50-2] | > 125 µg/mL
* 187: synthetic rabbit RNIP fragment, amino acids 151-171 of SEQ ID NO:4 (LKKIGQKIQGLLPKLAPRTDY) [Peptide 187] | > 125 µg/mL
* 52-2: synthetic rabbit RNIP fragment, amino acids 143-170 of SEQ ID NO:4 (FRNKIKEKLKKIGQKIQGLLPKLAPRTD) [Peptide 52-2] | > 125 µg/mL
* 54-1: synthetic rabbit RNIP fragment, amino acids 139-170 of SEQ ID NO:4 (RLRKFRNKIKEKLKKIGQKIQGLLPKLAPRTD) [Peptide 54-1] | > 125 µg/mL
* 36-1: synthetic rabbit RNIP fragment, amino acids 135-166 of SEQ ID NO:4 (GLRKRLRKFRNKIKEKLKKIGQKIQGLLPKLA) [Peptide 36-1] | 3.9 µg/mL

====

- Tested on: Human plasma
- assayName: Prothrombin time (PT)
- Format: biochemical
measureName: inhibition of the prothrombin time (PT), in words

- 50-2: synthetic rabbit RNIP fragment, amino acids 147-171 of SEQ ID NO:4 (IKEKLKKIGQKIQGLLPKLAPRTDY) [Peptide 50-2]: inactive
- 32-1: synthetic rabbit RNIP fragment, amino acids 135-143 of SEQ ID NO:4 (GLRKRLRKF) [Peptide 32-1]: inactive
- RNIP: rabbit reactive nitrogen inhibitory protein, amino acids 135-171 of SEQ ID NO:4; purified from granulocytes (Tables 1-3) or synthetic (#197) (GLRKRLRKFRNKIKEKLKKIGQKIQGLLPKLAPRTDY): inhibited
- 36-1: synthetic rabbit RNIP fragment, amino acids 135-166 of SEQ ID NO:4 (GLRKRLRKFRNKIKEKLKKIGQKIQGLLPKLA) [Peptide 36-1]: inhibited

====

- System: thioglycollate-stimulated murine peritoneal macrophages
- assayName: LPS-induced tissue factor generation by macrophages (clotting assay)
- Type: cell-based
- studyConditions: peptides 1 μg/ml incubated with S. minnesota smooth LPS 5 minutes; 6 hr
measureName: inhibition of LPS induced tissue factor (in words)

- RNIP: rabbit reactive nitrogen inhibitory protein, amino acids 135-171 of SEQ ID NO:4; purified from granulocytes (Tables 1-3) or synthetic (#197) (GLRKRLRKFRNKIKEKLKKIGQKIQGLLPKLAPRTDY): inhibition
- 36-1: synthetic rabbit RNIP fragment, amino acids 135-166 of SEQ ID NO:4 (GLRKRLRKFRNKIKEKLKKIGQKIQGLLPKLA) [Peptide 36-1]: inhibition
- 32-1: synthetic rabbit RNIP fragment, amino acids 135-143 of SEQ ID NO:4 (GLRKRLRKF) [Peptide 32-1]: fail to inhibit
- 50-2: synthetic rabbit RNIP fragment, amino acids 147-171 of SEQ ID NO:4 (IKEKLKKIGQKIQGLLPKLAPRTDY) [Peptide 50-2]: fail to inhibit

====

- targetUnderTest: prothrombin (factor II) (Homo sapiens, UniProt P00734)
- assayName: Prothrombin activation by Echis Carinatus venom (ECV)
- Format: biochemical
measureName: inhibition of Echis carinatus venom activation of purified factor II to IIa (in words)

- 36-1: synthetic rabbit RNIP fragment, amino acids 135-166 of SEQ ID NO:4 (GLRKRLRKFRNKIKEKLKKIGQKIQGLLPKLA) [Peptide 36-1]: inhibited
- 50-2: synthetic rabbit RNIP fragment, amino acids 147-171 of SEQ ID NO:4 (IKEKLKKIGQKIQGLLPKLAPRTDY) [Peptide 50-2]: inactive
- RNIP: rabbit reactive nitrogen inhibitory protein, amino acids 135-171 of SEQ ID NO:4; purified from granulocytes (Tables 1-3) or synthetic (#197) (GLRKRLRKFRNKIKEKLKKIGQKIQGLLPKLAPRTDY): inhibited
- 32-1: synthetic rabbit RNIP fragment, amino acids 135-143 of SEQ ID NO:4 (GLRKRLRKF) [Peptide 32-1]: inactive
